molecular target: KRas G12D (Homo sapiens, UniProt P01116, G12D); assay: biochemical; settings: Binding to KRas (IC50 nM) G12D, TR-FRET displacement, KRas G12D
Sequence (P01116 1-169 isoform P01116-2 G12D): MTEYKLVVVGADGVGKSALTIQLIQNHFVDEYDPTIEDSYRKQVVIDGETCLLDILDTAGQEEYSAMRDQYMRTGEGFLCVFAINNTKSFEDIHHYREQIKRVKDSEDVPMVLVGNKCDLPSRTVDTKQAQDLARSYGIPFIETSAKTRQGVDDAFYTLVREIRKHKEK
This listing pairs compounds with measured IC50.
Write the value in nM as a bare number.

Please review the entries below; each comes with its answer.
CCc1cccc2cccc(N3CCc4c(nc(OCC5(CN(C)C)CC5)nc4N4CCCOC(CC)C4)C3)c12 (stereo not drawn); 2310
CCc1c(F)ccc2cc(O)cc(N3CCc4c(nc(OC[C@@]56CCCN5C[C@H](F)C6)nc4N4Cc5cn(C(=O)N(C)C)nc5CC(C)(C)C4)C3)c12; 31

So what's the measured IC50 for this one? CCc1c(F)ccc2cc(O)cc(N3CCc4c(nc(OC[C@@]56CCCN5C[C@H](F)C6)nc4N4CCCn5nc6c(c5C4)CCCN6)C3)c12
3

====

tested on: H727 cells; test: Inhibition of KRas-mediated phosphorylation of ERK (Cisbio HTRF pERK), H727 cells; format: cell-based; conditions: Homo sapiens, NCI-H727, single point at 100 nM, 3 hrs compound incubation
Recorded inhibition at 0.1 µM by entry
The figure you give is taken to be in %; do not add the unit.

CCc1c(F)ccc2cc(O)cc(N3CCc4c(nc(OC[C@@]56CCCN5C[C@H](F)C6)nc4N4CCCCC(COCC(=O)N(C)C)C4)C3)c12 (stereo partly drawn); 3

Pending compound:
# query: inhibition at 0.1 µM of entry CCc1c(F)ccc2cc(O)cc(N3CCc4c(nc(OC[C@@]56CCCN5C[C@H](F)C6)nc4N4CCCn5nc(C(=O)N6CCC7CC6CN7C)cc5C4)C3)c12 (stereo partly drawn)
40

====

List of IC50 values.
biological target: KRas G12V (Homo sapiens, UniProt P01116, G12V); experiment: biochemical; settings: Binding to KRas (IC50 nM) G12V, TR-FRET displacement, KRas G12V
Sequence (P01116 1-169 isoform P01116-2 G12V): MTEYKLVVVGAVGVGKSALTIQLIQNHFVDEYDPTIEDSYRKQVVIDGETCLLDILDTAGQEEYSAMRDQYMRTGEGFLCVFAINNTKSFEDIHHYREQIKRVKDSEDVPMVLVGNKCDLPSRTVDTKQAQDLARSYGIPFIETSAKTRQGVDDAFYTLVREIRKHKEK
Output spec: scalar in nM, unitless text.

Use these answered entries as a reference point.
CCc1c(F)ccc2cc(O)cc(N3CCc4c(nc(OC[C@@]56CCCN5C[C@H](F)C6)nc4N4CCOCC(P(C)(C)=O)C4)C3)c12 (stereo partly drawn); 6
Cc1cc2[nH]ncc2c(N2CCc3c(nc(OCC45CCCN4CCC5)nc3N3CCCC4(CC(O)C4)C3)C2)c1C (single isomer, unassigned; isomer 1); 262

Now take the following molecule into account.
Name the reported IC50 value associated with the molecule CCc1c(F)ccc2cc(O)cc(N3CCc4c(nc(OC[C@@]56CCCN5C[C@H](F)C6)nc4N4CCNc5cc(Br)ccc5C4)C3)c12
38500

====

Examples of compounds with documented IC50 follow.
biological target: KRas G12V (Homo sapiens, UniProt P01116, G12V); experiment: biochemical; conditions: Binding to KRas (IC50 nM) G12V, TR-FRET displacement, KRas G12V
Give your result in nM as a bare value.

As a guide, the following entries are already answered.
CCc1cccc2cccc(N3CCc4c(nc(OCC5(CN(C)C)CC5)nc4NCCc4nnc5ccccn45)C3)c12 [Example 572]; 4560
CCc1cccc2cccc(N3CCc4c(nc(OCC5(CN(C)C)CC5)nc4N4CCCC(c5ncc[nH]5)C4)C3)c12 (stereo not shown) [Example 685]; 1860
CCc1cccc2cccc(N3CCc4c(nc(OCC5(CN(C)C)CC5)nc4N(C)Cc4nnc5n4CCOC5)C3)c12 [Example 538]; 1860
CCc1cccc2cccc(N3CCc4c(nc(OCC5(CN(C)C)CC5)nc4N4Cc5nncn5C(C)C4)C3)c12 (stereo not shown) [Example 519]; 1560
CCc1cccc2cccc(N3CCc4c(nc(OCC5(CN(C)C)CC5)nc4N4CCCC(c5c[nH]cn5)C4)C3)c12 (stereo not shown) [Example 680]; 3130

Now, please, on to the next compound.
Find the recorded IC50 belonging to CCc1cccc2cccc(N3CCc4c(nc(OCC5(CN(C)C)CC5)nc4N4CCCOC(CC)C4)C3)c12 (stereo not shown) [Example 663] and report it.
1420
